Each recorded value in this set is attributed to patent US4124598A.

System: Calf thymus DNA
Experiment: Equilibrium dialysis, non-covalent binding to DNA
Details: 0.01 M Tris, non-covalent binding
Where a name gives a salt, the structure may show the parent alone.
Measured Kd by item
# value in µM; strip the unit string

Example cases with answers are listed next.
COCc1c(C)oc2c(C)c3oc(=O)cc(C)c3cc12	94
Cc1cc2cc3c(C)cc(=O)oc3c(C)c2o1 [trioxsalen, 4,5',8-trimethyl psoralen, reference compound]	56
Cc1oc2c(C)c3oc(=O)cc(C)c3cc2c1CO	290

Attention now shifts to the item below.
### Prompt // returns reported Kd for input Cc1oc2c(C)c3oc(=O)cc(C)c3cc2c1CN [hydrochloride]
### Response 6.6
